FYI, the data here is from patent US20210324359A1.

- Test system: P. aeruginosa strain WC-453
- Assay name: Time-kill assay in HEPES or CAA with 25% human serum (Tables 7, 8)
- Type: cell-based, Pseudomonas aeruginosa
- Test parameters: 25 mM HEPES pH 7.4; lysin 10 μg/ml; 1 hr; WC-453
Value type: HEPES (Log10 CFU/mL), 1 hr

// HEPES (Log10 CFU/mL), 1 hr lookup, key: GN122: lysin obtained from Pseudomonas putida strain PA14H7 (SEQ ID NO: 218) (protein, listed as Pseudomonas putida) MSIFSFVKEAGEKLIDLLTPGNANASEQLKEHVSKVGLGNPNIQTTVEGSKVTVTGEVASQEEKEKILLALGNIAGVESVDDQITVTGPLVAAARFVVVKKGDTLSAISLAVYGNANQYNKIFEANKPLLSHPDKIYPGQTLRIPE
7.7 Log10 CFU/mL

// HEPES (Log10 CFU/mL), 1 hr lookup, key: GN11: lysin obtained from Pseudomonas putida KT2440 (SEQ ID NO: 208) (protein, listed as Pseudomonas putida) MTYNAGTKPRAETDYLVVHCSATRPSQDIGAADINRWHRAKGWRCIGYHFVIRRNGVVEEGRELDQIGAHVEGHNINSVGICMAGGVTEADINVPENNFTPEQFASLKHLLGELKEKYPSATIQGHRDFPKVAKACPSFDVKPWVAANL
6.7 Log10 CFU/mL

// HEPES (Log10 CFU/mL), 1 hr lookup, key: GN80: dispersin B-like molecule (SEQ ID NO: 214) (protein, listed as Staphylococcus sciuri) MENIQKGITVDIARKSYSLETLKTIVKHIHDHNGQYLQLHFSDDENYAIESEYFDRKSFSNPYYLTKTEVKSLIEYSNDLNVMVIPDMDFPSHSKAFLSLIKQNDKSLYQEIISDYSDNTLDFFSNRKAVDVTNRQIDEITELFKQPQFAEQQRIVLGGDEVAGGGAHQNSFIEYMNQIGDYAFQQGYEPQMWNDMVTHEGVKSLNNHYSILYWKQNEDNKSNLTVEDFDKYYFDVYNYNYYSLYFLPSKQFSQDDINEQAEYIGWAYAYNKFYYNKNPYSEVNSQNVKGSALSFWGEHATDMTQEELINQEVPLIKVYFNLKK
7.7 Log10 CFU/mL

// HEPES (Log10 CFU/mL), 1 hr lookup, key: GN7: lysin obtained from a marine metagenome (SEQ ID NO: 206) (protein, GOS_4958713 hypothetical protein GOS_4958713, partial [marine metagenome]) MTPFDHALELTLGLEGGYSNHLMDRGGETMCGITEAVARRHGWEGEMRDLPIEMVRHIYKVDYWDPLMGDYLGEHNPELAEELFDTAVNCGVGFASKILQKSINVLNRNRTEDIAEDGQIGPQTLKALRDLARRDYDYLLECCKILQGNHYISLAHRDPTQRIFIRGWLTRV
7.5 Log10 CFU/mL

// HEPES (Log10 CFU/mL), 1 hr lookup, key: GN83: AMP OBPgpLYS fused to the N-terminus of lysin GN4 (SEQ ID NO: 216) (protein, OBG_GN4_2 (Lyz+C-term)) MKNSEKNASIIMSIQRTLASLSLYGGRIDGLFGEKCRGAIILMLNKVYPNFSTNKLPSNTYEAESVFTFLQTALAGVGLYTITIDGKWGGTSQGAIDALVKSYRQITEAERAGSTLPLGLATVMSTSQRGIDLIKSFEGLRLSAYQDSVGVWTIGYGTTRGVTRYMTITVEQAERMLSNDIQRFEPELDRLAKVPLNQNQWDALMSFVYNLGAANLASSTLLKLLNKGDYQGAADQFPRWVNAGGKRLDGLVKRRAAERALFLEPLS
<3.7 Log10 CFU/mL
